experiment: Clearance in APPswe/PS1dE9 double mutant-transgenic mouse at 30 mg/kg, ip administered as single dose by LC-MS/MS analysis; type: ADME, organism-based; settings: in vivo
Reported Metric: CL/F (mL/min/kg)
// return numeric value only (unit: mL/min/kg, not printed)

Input line: Answer with the recorded CL/F of O=C1N/C(=N/c2ccccc2Cl)S/C1=C1\C(=O)Nc2ccc(F)cc21 only.
Output line: 26.5

----------
test: AUC in APPswe/PS1dE9 double mutant-transgenic mouse at 30 mg/kg, ip administered as single dose by LC-MS/MS analysis; format: ADME, organism-based; conditions: in vivo
Reported Metric: AUC (ng·h/mL)
Please respond with the number in ng·h/mL and leave the unit unwritten.

Input line: Please give the documented AUC of O=C1N/C(=N/c2ccccc2Cl)S/C1=C1\C(=O)Nc2ccc(F)cc21
Output line: 19200

Origin of measurements: ChEMBL document CHEMBL4359842
